assay: in vivo; conditions: chicken, embryos in ovo, 0.05 mg, %Hatched, 50 µg injected on day 5
Structures can show the parent of a compound that is named as a salt.

| compound | output-unit | survival |
| --- | --- | --- |
| N#Cc1ccc(C2CCCc3cncn32)cc1 (racemic) [hydrochloride] | % | 67 |

----------
assay: in vivo; conditions: chicken, embryos in ovo, 0.05 mg, %Hatched, 50 µg injected on day 0
Structures can show the parent of a compound that is named as a salt.

| molecule | output-unit | survival |
| --- | --- | --- |
| N#Cc1ccc(C2CCCc3cncn32)cc1 (racemic) [hydrochloride] | % | 40 |

Data origin: patent EP0433084A2
